Just for reference, patent US20220324835A1 is where these values come from.

- system_name: UniProt:Q13191
- Sequence (Q13191 36-427): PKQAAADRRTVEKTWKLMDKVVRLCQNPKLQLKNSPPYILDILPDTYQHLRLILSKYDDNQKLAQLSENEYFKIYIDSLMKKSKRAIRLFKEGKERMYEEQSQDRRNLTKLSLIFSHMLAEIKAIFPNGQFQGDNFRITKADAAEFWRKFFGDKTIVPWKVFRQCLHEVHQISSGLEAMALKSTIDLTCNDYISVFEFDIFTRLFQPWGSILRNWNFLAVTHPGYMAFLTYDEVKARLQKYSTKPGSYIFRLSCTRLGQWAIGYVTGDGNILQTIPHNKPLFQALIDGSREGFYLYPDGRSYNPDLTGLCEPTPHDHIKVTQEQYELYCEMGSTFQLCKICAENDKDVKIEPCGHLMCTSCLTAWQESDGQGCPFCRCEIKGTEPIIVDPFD
- procedure_details: Cbl-b inhibition assay (Cbl-b activity assay, FRET, Biological Example 1; 100 mM NaCl, 60 nM Src kinase)
- Assay type: biochemical
- setup_conditions: upper bound stated in text lists; read-out: IC50 values in the Cbl-b inhibition assay of Biological Example 1
// values below are reported IC50

These solved cases illustrate the format of a correct answer.
{"compound": "Cn1cnnc1CC1(c2cccc(N3Cc4c(cc(CN5CCC(F)(F)C5)cc4C(F)(F)F)C3=O)c2)COC1", "IC50": "≤ 100 nM"}
{"compound": "C[C@H](Cc1nncn1C)c1cccc(N2Cc3c(cc([C@H](C)N4CC[C@H](F)C4)cc3C(F)(F)F)C2=O)c1", "IC50": "≤ 100 nM"}
{"compound": "CC1C(C(F)(F)F)CCN1Cc1cc2c(c(C(F)(F)F)c1)CN(c1cccc(C3(Cc4nncn4C)COC3)c1)C2=O (stereo not drawn)", "IC50": "≤ 100 nM"}
{"compound": "CNc1cc([C@H](C)Cc2nncn2C)cc(N2Cc3c(cccc3C(F)(F)F)C2=O)n1", "IC50": "≤ 100 nM"}
{"compound": "C[C@H](Sc1nncn1C)c1ccnc(NC(=O)c2cc(Br)cc(C(F)(F)F)n2)c1", "IC50": "≤ 1000 nM"}

Indicate the recorded IC50 value for this compound: "Cn1cnnc1CC1(c2cccc(NC(=O)c3cc(CN4CC[C@H](F)C4)nc(C4CC4)n3)c2)COC1" ≤ 100 nM

Indicate the recorded IC50 value for this compound: "C[C@H](Cc1nncn1C)c1cccc(NC(=O)c2ccnc(C3CC3)n2)c1" ≤ 100 nM

Indicate the recorded IC50 value for this compound: "Cc1ccc(C(=O)Nc2cccc([C@H](C)Sc3nncn3C)c2)nc1C1CC1" ≤ 100 nM

Indicate the recorded IC50 value for this compound: CC(O)c1cc2c(c(C(F)(F)F)c1)CN(c1cccc([C@@](C)(F)C(F)(F)c3nncn3C)c1)C2=O (stereo partly drawn) ≤ 100 nM

Indicate the recorded IC50 value for this compound: C[C@H](Cc1nncn1C)c1ccnc(N2Cc3c(cccc3C(F)(F)F)C2=O)c1 [Compound 304b] ≤ 500 nM

Indicate the recorded IC50 value for this compound: "Cn1cnnc1CC1(c2cccc(N3Cc4c(cc(CO)cc4C(F)(F)F)C3=O)c2)COC1" ≤ 100 nM

Indicate the recorded IC50 value for this compound: "C[C@H](Sc1nncn1C)c1ccnc(NC(=O)c2ccc(Cl)c(C(F)(F)F)n2)c1" ≤ 10000 nM
